FYI, the data here is from patent US20250011413A1.

Target: T1, PF4/heparin complex (human PF4 complexed with heparin) (human, UniProt P02776 32-101)
T1 construct: Multimeric complex of PF4 with heparin (not a protein); In the EIAs: PF4 captured on biotinylated heparin on streptavidin plates; In the SRA: platelets with 0.2 U/mL heparin; also called PF4 and heparin complexes
T1 sequence: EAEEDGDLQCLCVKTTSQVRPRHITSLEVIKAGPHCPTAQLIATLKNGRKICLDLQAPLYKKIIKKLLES
Assay: competition EIA, scFv 50 µg/mL; competitor HIT-positive sera antibodies, n=10
Collected mean % inhibition of serum antibody binding values appear next to each entry.
Reported property: mean % inhibition of serum antibody binding (%)

INSERT INTO measurements (binder, measured_number) VALUES
  ('Mutant E scFv, scFv(Y156H, D180G, Q233P) (scFv, VL-linker-VH; histidine-tagged, from E. coli BL21; also called Mut E; not shown: histidine tag from the pADL-22c vector) scFv: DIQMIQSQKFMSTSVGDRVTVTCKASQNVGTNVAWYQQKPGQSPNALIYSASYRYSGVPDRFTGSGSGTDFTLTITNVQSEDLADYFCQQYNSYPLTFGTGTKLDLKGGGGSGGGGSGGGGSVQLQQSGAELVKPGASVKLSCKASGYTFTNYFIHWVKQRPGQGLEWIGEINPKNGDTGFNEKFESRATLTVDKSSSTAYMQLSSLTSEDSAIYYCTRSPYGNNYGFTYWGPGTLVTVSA', 76.5),
  ('Mutant B scFv, scFv(R18K, N152K, D180N) (scFv, VL-linker-VH; histidine-tagged, from E. coli BL21; also called Mut B; not shown: histidine tag from the pADL-22c vector) scFv: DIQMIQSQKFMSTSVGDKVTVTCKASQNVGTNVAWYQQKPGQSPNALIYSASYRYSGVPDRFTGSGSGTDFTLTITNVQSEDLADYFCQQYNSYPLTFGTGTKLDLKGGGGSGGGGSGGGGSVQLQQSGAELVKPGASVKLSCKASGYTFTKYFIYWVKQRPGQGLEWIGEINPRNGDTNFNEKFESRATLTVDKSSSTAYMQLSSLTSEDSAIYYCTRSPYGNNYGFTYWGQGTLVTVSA', 77.8),
  ('Mutant D scFv, scFv(Y156H) (scFv, VL-linker-VH; histidine-tagged, from E. coli BL21; also called Mut D; not shown: histidine tag from the pADL-22c vector) scFv: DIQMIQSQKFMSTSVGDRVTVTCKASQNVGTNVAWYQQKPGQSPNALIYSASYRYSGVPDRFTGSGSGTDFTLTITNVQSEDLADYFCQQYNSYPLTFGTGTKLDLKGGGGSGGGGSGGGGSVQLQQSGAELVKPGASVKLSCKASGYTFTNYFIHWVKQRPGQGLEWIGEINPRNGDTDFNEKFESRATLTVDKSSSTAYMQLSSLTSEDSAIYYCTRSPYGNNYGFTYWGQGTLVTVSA', 78.3),
  ('Mutant F scFv, scFv(E183V, E186K, G223R) (scFv, VL-linker-VH; histidine-tagged, from E. coli BL21; also called Mut F; not shown: histidine tag from the pADL-22c vector) scFv: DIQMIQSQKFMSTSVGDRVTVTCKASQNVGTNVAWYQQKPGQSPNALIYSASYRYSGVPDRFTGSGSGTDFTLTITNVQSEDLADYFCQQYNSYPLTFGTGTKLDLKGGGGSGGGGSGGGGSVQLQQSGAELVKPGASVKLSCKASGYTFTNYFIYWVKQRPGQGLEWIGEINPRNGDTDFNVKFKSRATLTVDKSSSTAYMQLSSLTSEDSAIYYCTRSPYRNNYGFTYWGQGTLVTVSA', 80);
